Numbers sourced from ChEMBL document CHEMBL1828498.

Target protein (sequence): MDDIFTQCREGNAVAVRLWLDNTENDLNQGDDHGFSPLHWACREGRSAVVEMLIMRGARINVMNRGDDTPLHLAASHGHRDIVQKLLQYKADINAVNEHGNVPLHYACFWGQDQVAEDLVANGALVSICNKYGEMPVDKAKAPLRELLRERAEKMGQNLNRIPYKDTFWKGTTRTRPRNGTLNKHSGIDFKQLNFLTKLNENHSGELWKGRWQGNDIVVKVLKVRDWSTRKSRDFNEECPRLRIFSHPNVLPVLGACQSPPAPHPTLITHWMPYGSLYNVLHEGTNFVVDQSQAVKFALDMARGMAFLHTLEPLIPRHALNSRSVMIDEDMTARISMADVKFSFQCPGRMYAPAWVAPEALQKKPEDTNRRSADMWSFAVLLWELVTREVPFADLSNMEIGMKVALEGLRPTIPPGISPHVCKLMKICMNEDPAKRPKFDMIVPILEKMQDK
pIC50: −log10 of the molar value.

>  <SMILES_STRUCTURE>
CNC(=O)CCc1cc(-c2ccc(-c3ccc(C(F)(F)F)cc3)cc2)n(-c2ccc(N3CCNCC3)cc2)n1

>  <pIC50>
6.22

$$$$

###

Target: 3-phosphoinositide-dependent protein kinase 1 (Homo sapiens)
Sequence (whole entry): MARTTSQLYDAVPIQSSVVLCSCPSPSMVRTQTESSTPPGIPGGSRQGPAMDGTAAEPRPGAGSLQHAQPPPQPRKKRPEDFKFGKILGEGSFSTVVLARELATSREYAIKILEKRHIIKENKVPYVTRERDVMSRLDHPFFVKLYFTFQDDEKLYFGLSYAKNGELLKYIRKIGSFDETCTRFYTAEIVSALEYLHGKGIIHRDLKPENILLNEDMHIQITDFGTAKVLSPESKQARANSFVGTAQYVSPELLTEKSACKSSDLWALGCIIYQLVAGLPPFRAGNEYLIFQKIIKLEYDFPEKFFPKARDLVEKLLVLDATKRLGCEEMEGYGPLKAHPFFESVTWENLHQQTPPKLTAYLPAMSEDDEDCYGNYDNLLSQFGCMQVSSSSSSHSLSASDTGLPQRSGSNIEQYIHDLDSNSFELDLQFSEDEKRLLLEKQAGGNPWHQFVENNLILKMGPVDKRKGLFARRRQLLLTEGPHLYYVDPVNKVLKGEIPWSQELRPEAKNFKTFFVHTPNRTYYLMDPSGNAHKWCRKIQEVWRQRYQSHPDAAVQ
Test: Inhibition of PDK2 in human PC3 cells assessed as Akt Thr-308 dephosphorylation by Western blot analysis
Assay type: functional, cell-based
Conditions: PC-3
Activity calls are given as the source filed them. The rule behind the calls is not given here.

>  <SMILES_STRUCTURE>
NC(=O)c1cccc(C(=O)N2CCN(c3ccc(-n4nc(C(F)(F)F)cc4-c4ccc5c(ccc6ccccc65)c4)cc3)CC2)c1

>  <SYSTEM_UNDER_TEST>
3-phosphoinositide-dependent protein kinase 1 (Homo sapiens)

>  <inhibition>
inactive

$$$$
>  <SMILES_STRUCTURE>
CCNC(=O)CCc1cc(-c2ccc(-c3ccc(C(F)(F)F)cc3)cc2)n(-c2ccc(NC(=O)CCN)cc2)n1

>  <SYSTEM_UNDER_TEST>
3-phosphoinositide-dependent protein kinase 1 (Homo sapiens)

>  <inhibition>
inactive

$$$$
>  <SMILES_STRUCTURE>
O=C(c1ccc(OC(F)(F)F)cc1)N1CCN(c2ccc(-n3nc(C(F)(F)F)cc3-c3ccc4c(ccc5ccccc54)c3)cc2)CC1

>  <SYSTEM_UNDER_TEST>
3-phosphoinositide-dependent protein kinase 1 (Homo sapiens)

>  <inhibition>
inactive

$$$$
>  <SMILES_STRUCTURE>
CC(=O)c1cc(C(=O)N2CCN(c3ccc(-n4nc(C(F)(F)F)cc4-c4ccc5c(ccc6ccccc65)c4)cc3)CC2)ccc1Cl

>  <SYSTEM_UNDER_TEST>
3-phosphoinositide-dependent protein kinase 1 (Homo sapiens)

>  <inhibition>
inactive

$$$$

###

Tested on: LNCaP
Test: Antiproliferative activity against human LNCAP cells assessed as suppression of cell viability by MTT assay
Format: functional, cell-based

>  <SMILES_STRUCTURE>
CNC(=O)CCc1cc(-c2ccc(-c3ccc(C(F)(F)F)cc3)cc2)n(-c2ccc(N3CCNCC3)cc2)n1

>  <SYSTEM_UNDER_TEST>
LNCaP

>  <IC50 / nM>
1600

$$$$
